// reported IC50 per item
target-system: human PD-1 (Jurkat-PD-1 cells) / PE-labeled human PD-L1-Ig (Homo sapiens, UniProt Q15116)
Construct: expressed in transfected cells; host or cells: Jurkat cell line over-expressing human PD-1
Sequence (Q15116 25-288): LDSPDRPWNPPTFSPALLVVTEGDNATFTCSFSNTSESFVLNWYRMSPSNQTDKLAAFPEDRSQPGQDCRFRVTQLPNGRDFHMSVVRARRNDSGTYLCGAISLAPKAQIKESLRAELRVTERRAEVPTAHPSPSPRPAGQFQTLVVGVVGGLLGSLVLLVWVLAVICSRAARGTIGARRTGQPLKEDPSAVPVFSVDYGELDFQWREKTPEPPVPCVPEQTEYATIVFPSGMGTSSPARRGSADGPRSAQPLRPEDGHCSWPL
test-name: Jurkat-PD-1 Cell Binding High-Content Screening Assay (CBA); Jurkat hPD1-PDL1 assay
conditions-used: Jurkat cell line over-expressing human PD-1; PE-labeled PD-L1-Ig 20 nM final; compound incubated 2 hours at 37° C.; read-out: Jurkat HPD1-PDL1 IC50
Positions of bridges follow the written chain, without caps; N, C: chain ends. Non-standard residues stand in square brackets, D forms with d. Residues, ends and D or L forms follow the SMILES beside them. ξ: configuration not given here. Bip = N[C@@H](Cc1ccc(-c2ccccc2)cc1)C(=O)O; NMeF = CN[C@@H](Cc1ccccc1)C(=O)O; ξR = N=C(N)NCCCC(N)C(=O)O; NMeA = CN[C@@H](C)C(=O)O; Orn = NCCC[C@H](N)C(=O)O

| compound | target-system | IC50 / µM |
| --- | --- | --- |
| CC(C)C[C@@H]1NC(=O)[C@H](CCCN)NC(=O)[C@H](Cc2ccccc2)N(C)C(=O)[C@H](C)N(C)C(=O)[C@H](CCCNC(=N)N)NC(=O)[C@H](Cc2ccc(-c3ccccc3)cc2)NC(=O)[C@H](C(C)C)NC(=O)[C@H](Cc2c[nH]c3ccccc23)NC(=O)[C@H](CC(=O)O)NC(=O)[C@H](Cc2ccc(O)cc2)NC(=O)[C@H](Cc2ccccc2)NC(=O)CSC[C@@H](C(=O)NCC(N)=O)NC(=O)[C@H](CO)NC(=O)[C@H](C(C)C)NC1=O [Example 1278] ({CH2CO}-FYDWV[Bip]R[NMeA][NMeF][Orn]LVSCG-NH2; thioether N-14) | human PD-1 (Jurkat-PD-1 cells) / PE-labeled human PD-L1-Ig (Homo sapiens, UniProt Q15116) | 0.31 |
| CC(C)C[C@@H]1NC(=O)C(CCCNC(=N)N)NC(=O)[C@H](Cc2ccccc2)N(C)C(=O)[C@H](C)N(C)C(=O)[C@H](CCCNC(=N)N)NC(=O)[C@H](Cc2ccc(-c3ccccc3)cc2)NC(=O)[C@H](C(C)C)NC(=O)[C@H](Cc2c[nH]c3ccccc23)NC(=O)[C@H](CC(=O)O)NC(=O)[C@H](Cc2ccc(O)cc2)NC(=O)[C@H](Cc2ccccc2)NC(=O)CSC[C@@H](C(=O)NCC(N)=O)NC(=O)[C@H](CO)NC(=O)[C@H](CCC(=O)O)NC1=O (some centres unmarked) [Example 1218] ({CH2CO}-FYDWV[Bip]R[NMeA][NMeF][ξR]LESCG-NH2; thioether N-14) | human PD-1 (Jurkat-PD-1 cells) / PE-labeled human PD-L1-Ig (Homo sapiens, UniProt Q15116) | 0.23 |

###

target-system: human PD-1 (Jurkat-PD-1 cells) / PE-labeled human PD-L1-Ig (Homo sapiens, UniProt Q15116)
Construct: expressed in transfected cells; host or cells: Jurkat cell line over-expressing human PD-1
test-name: Jurkat-PD-1 Cell Binding High-Content Screening Assay (CBA); Jurkat hPD1-PDL1 assay
conditions-used: Jurkat cell line over-expressing human PD-1; PE-labeled PD-L1-Ig 20 nM final; compound incubated 2 hours at 37° C.; read-out: Jurkat HPD1-PDL1 IC50
Positions of bridges follow the written chain, without caps; N, C: chain ends. Non-standard residues stand in square brackets, D forms with d. Residues, ends and D or L forms follow the SMILES beside them. Bip = N[C@@H](Cc1ccc(-c2ccccc2)cc1)C(=O)O; NMeF = CN[C@@H](Cc1ccccc1)C(=O)O; NMeA = CN[C@@H](C)C(=O)O; Dab = NCC[C@H](N)C(=O)O
// reported IC50 per item
readout-type: IC50 (nM)

| molecule | units-text | measured |
| --- | --- | --- |
| CC(C)C[C@@H]1NC(=O)[C@H](CCCNC(=N)N)NC(=O)[C@H](Cc2ccccc2)N(C)C(=O)[C@H](C)N(C)C(=O)[C@H](CCC(=O)O)NC(=O)[C@H](Cc2ccc(-c3ccccc3)cc2)NC(=O)[C@H](C(C)C)NC(=O)[C@H](Cc2c[nH]c3ccccc23)NC(=O)[C@H](CC(=O)O)NC(=O)[C@H](Cc2ccc(O)cc2)NC(=O)[C@H](Cc2ccccc2)NC(=O)CSC[C@@H](C(=O)NCC(N)=O)NC(=O)[C@H](CO)NC(=O)[C@H](C(C)C)NC1=O [Example 1214] ({CH2CO}-FYDWV[Bip]E[NMeA][NMeF]RLVSCG-NH2; thioether N-14) | nM | 60 |
| CC(C)C[C@@H]1NC(=O)[C@H](Cc2c[nH]c3ccccc23)NC(=O)[C@H](CC(=O)O)NC(=O)[C@H](Cc2ccc(O)cc2)NC(=O)[C@H](Cc2ccccc2)NC(=O)CSC[C@@H](C(=O)N[C@@H](C)C(N)=O)NC(=O)[C@H](CO)NC(=O)[C@H](C(C)C)NC(=O)[C@H](CC(C)C)NC(=O)[C@H](CCN)NC(=O)[C@H]2CCCN2C(=O)[C@H](C)N(C)C(=O)[C@H](C(C)C)NC(=O)[C@H](Cc2ccc(-c3ccccc3)cc2)NC1=O [Example 1397] ({CH2CO}-FYDWL[Bip]V[NMeA][dP][Dab]LVSCA-NH2; thioether N-14) | nM | 40 |

###

target-system: human PD-1 (Jurkat-PD-1 cells) / PE-labeled human PD-L1-Ig (Homo sapiens)
Construct: expressed in transfected cells; host or cells: Jurkat cell line over-expressing human PD-1
test-name: Jurkat-PD-1 Cell Binding High-Content Screening Assay (CBA); Jurkat hPD1-PDL1 assay
conditions-used: Jurkat cell line over-expressing human PD-1; PE-labeled PD-L1-Ig 20 nM final; compound incubated 2 hours at 37° C.; read-out: Jurkat HPD1-PDL1 IC50
Source text: The ability of the compounds of formula (I) to bind to PD-1 was investigated using a Jurkat-PD-1 Cell Binding High-Content Screening Assay. Jurkat-PD-1 Cell Binding High-Content Screening Assay (CBA) Phycoerythrin (PE) was covalently linked to the Ig epitope tag of human PD-L1-Ig and fluorescently-labeled PD-L1-Ig was used for binding studies with a Jurkat cell line over-expressing human PD-1 (Jurkat-PD-1). […]
Positions of bridges follow the written chain, without caps; N, C: chain ends. Non-standard residues stand in square brackets, D forms with d. Residues, ends and D or L forms follow the SMILES beside them. Bip = N[C@@H](Cc1ccc(-c2ccccc2)cc1)C(=O)O; NMeF = CN[C@@H](Cc1ccccc1)C(=O)O; NMeA = CN[C@@H](C)C(=O)O; Sar = CNCC(=O)O
readout-type: IC50 (nM)

| molecule | units-text | measured |
| --- | --- | --- |
| CC(C)C[C@@H]1NC(=O)[C@H](Cc2c[nH]c3ccccc23)NC(=O)[C@H](CC(=O)O)NC(=O)[C@H](Cc2ccc(O)cc2)NC(=O)[C@H](Cc2ccccc2)NC(=O)CSC[C@@H](C(=O)NCC(N)=O)NC(=O)[C@H](CO)NC(=O)[C@H](C(C)C)NC(=O)[C@H](CC(C)C)NC(=O)[C@H](C(C)C)NC(=O)CN(C)C(=O)[C@H](C)N(C)C(=O)[C@H](CCCNC(=N)N)NC(=O)[C@H](Cc2ccc(-c3ccccc3)cc2)NC1=O [Example 1232] ({CH2CO}-FYDWL[Bip]R[NMeA][Sar]VLVSCG-NH2; thioether N-14) | nM | 330 |
| CC(C)C[C@@H]1NC(=O)[C@H](CCCNC(=N)N)NC(=O)[C@H](Cc2ccccc2)N(C)C(=O)[C@H](C)N(C)C(=O)[C@H](CCCNC(=N)N)NC(=O)[C@H](Cc2ccc(-c3ccccc3)cc2)NC(=O)[C@H](C(C)C)NC(=O)[C@H](Cc2c[nH]c3ccccc23)NC(=O)[C@H](CC(=O)O)NC(=O)[C@H](Cc2ccc(O)cc2)NC(=O)[C@H](Cc2ccccc2)NC(=O)CSC[C@@H](C(=O)NCC(N)=O)NC(=O)[C@H](CC(=O)O)NC(=O)[C@H](C(C)C)NC1=O [Example 1333] ({CH2CO}-FYDWV[Bip]R[NMeA][NMeF]RLVDCG-NH2; thioether N-14) | nM | 680 |

###

// reported IC50 per item
target-system: human PD-1 (Jurkat-PD-1 cells) / PE-labeled human PD-L1-Ig (Homo sapiens)
Construct: expressed in transfected cells; host or cells: Jurkat cell line over-expressing human PD-1
test-name: Jurkat-PD-1 Cell Binding High-Content Screening Assay (CBA); Jurkat hPD1-PDL1 assay
conditions-used: Jurkat cell line over-expressing human PD-1; PE-labeled PD-L1-Ig 20 nM final; compound incubated 2 hours at 37° C.; read-out: Jurkat HPD1-PDL1 IC50
Positions of bridges follow the written chain, without caps; N, C: chain ends. Non-standard residues stand in square brackets, D forms with d. Residues, ends and D or L forms follow the SMILES beside them. Bip = N[C@@H](Cc1ccc(-c2ccccc2)cc1)C(=O)O; NMeF = CN[C@@H](Cc1ccccc1)C(=O)O; NMeA = CN[C@@H](C)C(=O)O
readout-type: IC50

| compound | measured |
| --- | --- |
| CC(C)C[C@@H]1NC(=O)[C@H](Cc2c[nH]c3ccccc23)NC(=O)[C@H](CC(=O)O)NC(=O)[C@H](Cc2ccc(O)cc2)NC(=O)[C@H](Cc2ccccc2)NC(=O)CSC[C@@H](C(=O)NCC(N)=O)NC(=O)[C@H](CO)NC(=O)[C@H](C(C)C)NC(=O)[C@H](CC(C)C)NC(=O)[C@H](CC(N)=O)NC(=O)[C@H]2CCCN2C(=O)[C@H](C)N(C)C(=O)[C@H](C(C)C)NC(=O)[C@H](Cc2ccc(-c3ccccc3)cc2)NC1=O [Example 1035] ({CH2CO}-FYDWL[Bip]V[NMeA][dP]NLVSCG-NH2; thioether N-14) | 60 nM |
| CC(C)C[C@@H]1NC(=O)[C@H](Cc2c[nH]c3ccccc23)NC(=O)[C@H](CC(=O)O)NC(=O)[C@H](Cc2ccc(O)cc2)NC(=O)[C@H](Cc2ccccc2)NC(=O)CSC[C@@H](C(=O)N[C@@H](C)C(N)=O)NC(=O)[C@H](CO)NC(=O)[C@H](C(C)C)NC(=O)[C@H](CC(C)C)NC(=O)[C@H](CC(N)=O)NC(=O)[C@H](Cc2ccccc2)N(C)C(=O)[C@H](C)N(C)C(=O)[C@H](CCCNC(=N)N)NC(=O)[C@H](Cc2ccc(-c3ccccc3)cc2)NC1=O [Example 1095] ({CH2CO}-FYDWL[Bip]R[NMeA][NMeF]NLVSCA-NH2; thioether N-14) | 280 nM |
